All values here come from the RNAGym collection of RNA variant scans (doi:10.7554/elife.80360).

B1: Hairpin Ribozyme (parent)
chain: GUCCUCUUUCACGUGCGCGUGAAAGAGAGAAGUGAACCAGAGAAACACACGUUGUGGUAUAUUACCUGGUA

Variants of: B1
Experiment: self-cleavage, relative activity (ratio to wild type); higher = more cleavage; co-transcriptional
RECORDED_METRIC: self-cleavage
# output: bare number, no unit

Entry U8G C18U , self-cleavage reported as 0.678

# variant A45U U63G ; its self-cleavage = 0.0513

Input U7C G17U . Output self-cleavage: 0.892

Lab note: C12G U20G gave self-cleavage of 0.798
